# target-or-test-system: T1, SUVH5 SRA domain (Arabidopsis, UniProt O82175 362-528)
# T1 sequence: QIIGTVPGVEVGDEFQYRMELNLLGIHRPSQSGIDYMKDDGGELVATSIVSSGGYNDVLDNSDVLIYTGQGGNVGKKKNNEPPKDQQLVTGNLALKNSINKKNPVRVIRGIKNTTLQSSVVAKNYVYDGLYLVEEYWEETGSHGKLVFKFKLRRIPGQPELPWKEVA
# experimental-protocol: ITC; N fixed to 0.5; 3-fold higher concentrations; ITC: 40 mM Tris-HCl pH 7.5, 50 mM NaCl, 2 mM b-mercaptoethanol, 25 C; FP: 20 mM Tris-HCl pH 7.5, 50 mM NaCl, 1 mM DTT, 20 C; EMSA: 25 mM Tris-HCl pH 7.5, 5% glycerol, 60 mM NaCl, 10 mM MgCl2, 0.4 mg/mL BSA, 2 mM DTT
# run-conditions: protein: recombinant; tags: His6-SUMO, cleaved with Ulp1; chain copies: 2; self-complementary, 2 copies of strand
measured-metric: Kd

input: Please indicate Kd recorded for fully-5caCG duplex (ITC) (dsDNA, 5caC at central CG, both strands) DNA 1: CAGCTCGAGCTG DNA 2: CAGCTCGAGCTG
output: ~150 µM

Where these numbers come from: paper PMC4740795
